- TARGET_ENTITY: acetylcholine receptor
- METHOD: SPR, peptide at 10 uM on immobilized AchR
ASSAY_ENDPOINT: Binding affinity (RU)

Sample answers from the record:
RKKKKK [6mer-2-1057]	25
RPMGRK [6mer-2-1074]	33
RAPFKK [6mer-2-1030]	28
RAPVRR [6mer-2-1017]	40
RDEMKR [6mer-2-1015]	29

I = KYAWRK [6mer-2-1040]
II = RACDKR [6mer-2-1041]
Q: API: POST /compare with I and II ; response names the item with higher Binding affinity (RU). Your answer should be the label of the entry you select.
Ans: I

A = RCMKRR [6mer-2-1064]
B = RNHFRK [6mer-2-1039]
Q: Which has the smaller recorded Binding affinity (RU), A or B ? Your answer should be the label of the entry you select.
Ans: B

A = KPPIKK [6mer-2-1061]
B = KAEFKR [6mer-2-1023]
Q: Which has the smaller recorded Binding affinity (RU), A or B ? Your answer should be the label of the entry you select.
Ans: B
(B: 26 RU, A: 38 RU)
